Biological target: Delta Opioid Receptor (Mus musculus, UniProt P32300)
Construct: NG108-15 cell membranes were purchased from Applied Cell Sciences (Rockville, Md.); host or cells: NG108-15 cell membranes (purchased)
Sequence (P32300 whole entry): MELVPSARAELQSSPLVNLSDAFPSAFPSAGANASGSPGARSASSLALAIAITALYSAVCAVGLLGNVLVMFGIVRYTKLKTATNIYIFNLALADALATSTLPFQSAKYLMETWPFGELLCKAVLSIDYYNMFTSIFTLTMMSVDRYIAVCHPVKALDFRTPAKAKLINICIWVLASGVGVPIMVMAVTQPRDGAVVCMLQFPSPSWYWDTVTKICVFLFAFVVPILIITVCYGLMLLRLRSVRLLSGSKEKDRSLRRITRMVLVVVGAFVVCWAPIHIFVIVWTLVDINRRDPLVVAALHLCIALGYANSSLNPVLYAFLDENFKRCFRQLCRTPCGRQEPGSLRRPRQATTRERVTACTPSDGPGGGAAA
Experiment: NG108-15, 24-well delta opioid receptor binding assay ([3H]naltrindole)
experimentalEndpoint: pKi
Give bare numbers, as −log10 of the molar value.

Go through the list and state pKi for each entry.
1. CCN(C[C@@H]1CCCN1)c1ccc(-c2cncc(F)c2)cc1Oc1ccc(OC)cc1
2. CCN(C[C@@H]1CCCN1)c1ccc(-c2cncc(C#N)c2)cc1Oc1ccc(OC)cc1
3. COc1ccc(Oc2cc(-c3cccnc3)ccc2NC[C@@H]2CCCN2)cc1
4. COc1ccc(Oc2cc(-c3cncc(F)c3)ccc2NC[C@@H]2CCCN2)cc1

[7.64, 8.03, 8.78, 9.12]
